Recorded pEC50 for the following binders
Target: T1, recombinant human SOD1 (biomol, Hamburg) (human, UniProt P00441 2-154, limits assumed)
T1 construct: Bought protein; also called recombinant human superoxide dismutase 1; Recombinant SOD1
T1 sequence (P00441 2-154 limits assumed): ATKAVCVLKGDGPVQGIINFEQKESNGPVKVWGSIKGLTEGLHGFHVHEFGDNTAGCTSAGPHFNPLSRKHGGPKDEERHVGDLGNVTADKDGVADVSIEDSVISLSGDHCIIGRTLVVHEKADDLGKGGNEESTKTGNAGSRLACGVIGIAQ
Test: direct ELISA, recombinant human SOD1 coated at 10 µg/ml
Please keep in mind that pEC50 is minus log10 of the molar concentration; only the number is needed.

Recorded pEC50, per entry:
NI-204.12G7 (antibody, human IgG1, V domains shown) VH: EVQLVESGAEVKKPGASVTLSCKASGYTFTAYYIHWVRQAREQGLEWMGVINPSTGTTFYAQNFPDRVSVTRDTSTSTVFMELHNLKSEDTAVYYCARAISEHGSGSYSPYYWGQGTLVTVSS VL: SYVLTQPPSVSVSLGQMAAITCSGEALPKKYGYWYQQKPGQVPVLLIYRDVERPSGVPDRFSGSSSGTMVTLTISGVQAEDEADYYCLSADSSGTWVFGGGTKLTVL | 9.41
NI-204.10D12 (antibody, V domains shown) VH: EVQLVESGGDLVRPGGSLRLSCVASGFTFSNYWMHWVRQAPGQRPVWVSRTNTDGRNTAYADYAKGRFTISRDNAKSTLYLQLNSLRAEDTAVYFCARLRRNVADQITHNYYMDVWGKGTLVTVSS VL: EIVLTQSPGSLAVSLGERATINCKSSQTVLYNNKNYLAWYQQKPGQPPKLLISWASSRESGVPDRFSGSGSGTDFTLTISSLQAEDVAVYYCQHYYGTPVTFGGGTKVEIK | 7.62
NI-204.10A8 (antibody, human IgG1, V domains shown) VH: EVQLVESGAEVKEPGSSVRVSCKTSGGSFNRHVITWVRQAPGQGLEWMGEIIPFFGTPKYAPKFQGRVTIIADASTSTFFLDVKSLTSEDTALYFCWIVVVSVVQRREDFWGQGILVTVSS VL: EIVLTQSPSSLSASVGDTVTITCRSSQNISNYLSWFQHKPGKAPRILVYAASTLQTGVPSRFSGRGSGTIFTLSITSLQSEDYATYYCQQNDKIPRTFGQGTKVEIK | 8.68

We next turn to a different binder, shown below.
Inquiry: Give the measured pEC50 for NI-204.9F6 (antibody, human IgG1, V domains shown, also called NI-209.9F6) VH: EVQLVESGGGLVQPGGSLRLSCAVSGFTFDTFAMSWVRQAPGKGLEWVSAITASSSKTYYADSVKGRFTISRDNSRNTVYLRLSSLRADDTAVYFCARPKGAHSGLYIESAFDLWGPGTMVTVSS VL: SYVLTQPPSVSVSAGQTASITCSADMLGDTYVSWYQKRPGQSPVLLIYQDSKRPSEIPERFSGSSSEDTATLTITGTQALDEAAYYCQVWDRRTTTYVFGPGTEVTVL
Reply text: 6.83
